experimental_system: T1, human GITR (human, UniProt Q9Y5U5 26-241)
T1 construct: also called TNFRSF18; Glucocorticoid-induced TNFR-related gene
T1 sequence: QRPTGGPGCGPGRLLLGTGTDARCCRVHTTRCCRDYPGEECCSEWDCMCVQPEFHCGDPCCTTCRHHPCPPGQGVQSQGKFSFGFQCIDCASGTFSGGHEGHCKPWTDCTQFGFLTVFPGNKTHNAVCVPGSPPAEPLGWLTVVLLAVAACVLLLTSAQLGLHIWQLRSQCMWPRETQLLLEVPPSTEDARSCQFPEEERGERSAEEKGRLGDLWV
test: flow cytometry on activated human T cells
Values of EC50 strictly less than 0.06 µg/mL map to Y, and values of at least 0.06 µg/mL map to N.

1. 41G5v2 (antibody, human IgG1, kappa, V domains shown, Engineered variant; also called Ab56; SS-13809) VH: QVQLVESGGGVVQPGRSLRLSCAASGFTFSSYGMHWVRQAPGKGLEWVAVIWYPGSNKYYAESVKGRFTISRDNSKNTLYLQMNSLRAEDTAVYYCARGGELGRYYYYGMDVWGQGTTVTVSS VL: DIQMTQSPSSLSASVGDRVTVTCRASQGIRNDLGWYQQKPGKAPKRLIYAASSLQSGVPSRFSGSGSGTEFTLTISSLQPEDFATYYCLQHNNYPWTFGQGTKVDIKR : Y
2. 33C9v4 (antibody, human IgG1, kappa, V domains shown, Engineered variant; also called Ab53; SS-16950) VH: QVQVVESGGGVVQPGRSLRLSCAASGFTFSSYGMHWVRQAPGKGLEWVSVIWYEGSNKYYAESVKGRFTISRDNSKNTLYLQMNSLRAEDTAVYYCARGGLLGYYYYYGMDVWGQGTTVTVSS VL: DIQMTQSPSSLSASVGDRVTITCRASQGIRNDLGWYQQKPGKAPKLLIYDASSLQSGVPSRFSGSGSGTEFTLTISSLQPEDFATYYCLQHHSYPWTFGQGTKVEIKR : N
3. 5H7 (antibody, human IgG1, kappa, V domains shown, Parental fully human antibody; also called Ab17; SS-10943) VH: QVQLQESGPGLVKPSQTLSLTCTVSGGSISSGGYFWSWIRQHPGKGLEWIGYIYYSGTTYYNPSLKSRVTISIDTSKNHFSLKLSSVTAADTAVYYCARDLFYYDSSGPRGFDPWGQGTLVTVSS VL: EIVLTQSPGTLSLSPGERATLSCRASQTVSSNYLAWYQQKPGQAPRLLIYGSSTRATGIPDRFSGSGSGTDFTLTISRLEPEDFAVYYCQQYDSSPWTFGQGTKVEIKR : N

Please state whether EC50 is below 0.06 µg/mL for 41G5v5 (antibody, human IgG1, kappa, V domains shown, Engineered variant; also called Ab59; SS-16955) VH: QVQLVESGGGVVQPGRSLRLSCAASGFTFSSYGMHWVRQAPGKGLEWVAVIWYPGSNKYYADTVKGRFTISRDNSKNTLYLQMNSLRAEDTAVYYCARGGELGRYYYYGMDVWGQGTTVTVSS VL: DIQMTQSPSSLSASVGDRVTVTCRASQGIRNDLGWYQQKPGKAPKLLIYAASSLQSGVPSRFSGSGSGTEFTLTISSLQPEDFATYYCLQHNNYPWTFGQGTKVDIKR
N

The reported measurements were obtained from patent US20150064204A1.
